I'd be grateful if you could share measured growth for these entries.
System: ACHN renal
Experiment: NCI-60 one-dose screen, 48 h (100 = growth as untreated, 0 = no growth, -100 = all killed)
Settings: 10 µM unless noted
This is part of a sample that, as a whole, favours compounds with a hit. Of some 83,000 tested, about 20% had one in any assay.
Answers are plain numbers, in %.

Some molecules with recorded growth:
molecule=COc1ccn(C)c(=O)c1C#N targetundertest="ACHN renal" measurednumber=102
molecule="COc1c(O)cc2c(c1OC)-c1ccc(SC)c(=O)cc1C(NC(C)=O)CC2 (stereo unspecified)" targetundertest="ACHN renal" measurednumber=3.04
molecule="COCC1OC2OC3C(COC)OC(OC4C(COC)OC(OC5C(COC)OC(OC6C(COC)OC(OC7C(COC)OC(OC8C(COC)OC(OC1C(O)C2O)C(O)C8O)C(O)C7O)C(O)C6O)C(O)C5O)C(O)C4O)C(O)C3O (stereo unspecified) (tested in a mixture with another compound)" targetundertest="ACHN renal" measurednumber=107
molecule="CCCN1C(=O)NC(=O)C(CC)(N2C(=O)c3c(F)c(F)c(F)c(F)c3C2=O)C1=O (stereo unspecified)" targetundertest="ACHN renal" measurednumber=-79.4
molecule=ClCc1ccc(Cl)c(Cl)c1 targetundertest="ACHN renal" measurednumber=96.8

Moving on to the next molecule.
Form field, growth with ACHN renal, item C[C@]12CCc3nc(-c4ccc(O)c(O)c4)sc3C1=CC[C@@H]1[C@@H]2CC[C@]2(C)C(=O)CC[C@@H]12 : 51.3

###

Tested on: SK-OV-3 ovarian
Assay: NCI-60 one-dose screen, 48 h
Conditions: 10 µM unless noted
The panel holds about 83,000 compounds, 20% with a hit somewhere; the sample as a whole holds those more often. Activity calls are given as the source filed them. The calls were made as follows: active = growth percent below 10; inactive = the rest.
Return exactly one item of 1 for active, 0 for inactive

The examples below pair each entry with its known result.
compound=C/C=C(/C)C(=O)O[C@H]1CC[C@@]2(C)[C@@H]3CC[C@H]4[C@]5(O)C[C@H](O)[C@@]6(O)[C@@H](CN7C[C@@H](C)CC[C@H]7[C@@]6(C)O)[C@]5(O)C[C@@]42O[C@@]13O cat=0
compound=C[C@H](O)CCC(=O)c1ccoc1 cat=0
compound=c1ccc2c(c1)O[As](O[As]1Oc3ccccc3O1)O2 cat=0
compound=CCC1(CCSC#N)C(=O)NC(=O)NC1=O cat=0
compound=CCCCS(=O)(=O)Cl cat=0
compound=Nc1ccc(S(=O)(=O)F)cc1 cat=0
compound="O=S(OO)c1cc(Cl)c(O)c(Cl)c1 (configuration not stated)" cat=0
compound=Cc1ccc(NC2=N[C@]34CC(=O)CC[C@]3(C)[C@H]3CC[C@]5(C)C(=O)CC[C@H]5[C@@H]3C[C@@H]4S2)c(C)c1 cat=0
compound=Cc1ccc(N2CCN(CCC#N)CC2)cc1 cat=0
compound=Cc1nc2ccccc2c(=O)n1-c1ccccc1F cat=0

Just curious, what result did COC12CC3C4=CCOC5CC(=O)N6c7ccccc7C1(CCN2C4)C6C53 (configuration not stated) get here?
0

Just curious, what result did CC/C(=C(\c1ccc(OCCN2CCOCC2)cc1)c1ccc(OC(=O)Cc2ccccc2)cc1)c1ccc(Cl)cc1 get here?
0

###

System: MOLT-4 leukemia
Test: NCI-60 one-dose screen, 48 h (100 = growth as untreated, 0 = no growth, -100 = all killed)
Details: 10 µM unless noted
This is part of a sample that, as a whole, favours compounds with a hit. Of some 83,000 tested, about 20% had one in any assay. The source made the active and inactive calls. The calls were made as follows: active = growth percent below 10; inactive = the rest.
readoutKind: growth

Some compounds with recorded growth:
compound=CN1CCN(c2ccc(Cl)cc2)CC1 readoutkind=growth result="75.6% (inactive)"
compound=CC[C@H](C)[C@H](NC(=O)CN(C)C)C(=O)N(C)[C@H](C[C@@H](OC(C)=O)c1nc(C(=O)NC23CC(C(=O)OC)(C2)C3)cs1)C(C)C readoutkind=growth result="12.3% (inactive)"
compound="COc1cc(C2C3=C(CCCC3=O)N(CCO)c3cc4c(cc32)CCC4)cc(OC)c1OC (stereo not given)" readoutkind=growth result="93.5% (inactive)"

Please give growth for each item listed below.
1. C[C@]12CC[C@H]3[C@@H](CC=C4c5nc(N)sc5CC[C@@]43C)[C@@H]1CC[C@@H]2O
2. C=C[Se]CC(=O)/C=C/c1ccccc1

["103% (inactive)", "79.5% (inactive)"]

###

Tested on: M14 melanoma
Experiment: NCI-60 one-dose screen, 48 h
Details: 10 µM unless noted
Method: Growth inhibition of the M14 human tumor cell line is measured as a screen for anti-cancer activity. Cells are grown in 96 well plates and exposed to the test compound for 48 hours. Compounds are tested at a single concentration, which is 10^-5 M for most compounds. The reported endpoint is percent growth (GI% or GIPRCNT), where numbers from 0 - 100% represent growth inhibition, and numbers from -100% - 0 represent cell death. For example, a value of 40 represents 60% growth inhibition. […]
The panel holds about 83,000 compounds, 20% with a hit somewhere; the sample as a whole holds those more often. Active and inactive are the calls of the source. How the source made its calls: active means growth percent below 10; inactive means the rest.
Return exactly one item of active, inactive

The examples below pair each entry with its known result.
molecule=S=P(SP(=S)(c1ccccc1)c1ccccc1)(c1ccccc1)c1ccccc1 cat=inactive
molecule="CC[PH+](CC)CC.O=COC1OC([S-])C(OC=O)C(OC=O)C1OC=O.[Au+] (configuration not stated)" cat=active
molecule=Cn1cc(C(=O)C[n+]2ccccc2)c2ccccc21 cat=inactive
molecule=CCOP(=O)(NC)OCC cat=inactive
molecule=CC1(C)C=Cc2c(ccc3c2[N+]([O-])=C2C3=C[C@@]34NC(=O)[C@]5(CCCN5C3=O)C[C@@H]4C2(C)C)O1 cat=inactive

Just curious, what result did COc1cc(-c2ccc(N)c(OC)c2)ccc1N get here?
inactive

Just curious, what result did Cc1cc2c(cc1-c1ccnc(/C=C/C(=O)O)c1)C(C)(C)CCC2(C)C get here?
inactive

Just curious, what result did CNC(=O)Oc1ccc(Cl)cc1SSc1cc(Cl)ccc1OC(=O)NC get here?
inactive

Just curious, what result did CCN1C(=O)NC(=O)C(C)(N2C(=O)c3c(F)c(F)c(F)c(F)c3C2=O)C1=O (configuration not stated) get here?
inactive

Just curious, what result did O=C1CN2CCC1CC2 get here?
inactive

Just curious, what result did C/C=C(/C)C(=O)O[C@H]1CC[C@@]2(C)[C@@H]3CC[C@H]4[C@]5(O)C[C@H](O)[C@@]6(O)[C@@H](CN7C[C@@H](C)CC[C@H]7[C@@]6(C)O)[C@]5(O)C[C@@]42O[C@@]13O get here?
inactive

Just curious, what result did CC12CCC3C4CCC(=O)C=C4CCC3C1CC1CC(=O)OC12 (configuration not stated) get here?
inactive

Just curious, what result did O=S(OO)c1cc(Cl)c(O)c(Cl)c1 (configuration not stated) get here?
inactive

Just curious, what result did COc1cc2c(cc1OC)[C@@H]1C(=O)c3ccc4c(c3O[C@@H]1CO2)C[C@H](C(C)C)O4 get here?
inactive

Just curious, what result did C=CC1CN2CCC1CC2C(O)c1ccnc2ccccc12 (configuration not stated) get here?
inactive

###

Tested on: 786-0 renal
Assay: NCI-60 one-dose screen, 48 h (100 = growth as untreated, 0 = no growth, -100 = all killed)
Conditions: 10 µM unless noted
About 83,000 compounds went through this panel and 20% of them were active in at least one assay; those are over-represented in the sample as a whole.
# growth >= 90% gives y, anything below gives n

The examples below pair each entry with its known result.
compound=Cc1c2ccncc2c(C)c2c1[nH]c1ccccc12 cat=n
compound=C[C@@H]1C/C=C\C(=O)O[C@H](/C=C/C#C/C=C/C(C)(C)[C@@H](O)c2cccc(O)c2Br)[C@@H](C)/C=C/[C@H](C)C[C@H](OC(N)=O)C1 cat=n
compound=Nc1ccc(S(=O)(=O)F)cc1 cat=y
compound=CC1=C2[C@H]3OC(=O)[C@@H](C)[C@@H]3CC[C@@]2(C)C=CC1=O cat=y

Reported growth at or above 90%? O=C(O)c1cc([N+](=O)[O-])cc([N+](=O)[O-])c1
y

Reported growth at or above 90%? C/C(=N/OC(=O)N(C)C)c1ccc(Cl)c(Cl)c1
y

Reported growth at or above 90%? Nc1c(Cl)c(Cl)nc(C(=O)O)c1Cl
y

###

System: RPMI-8226 leukemia
Test: NCI-60 one-dose screen, 48 h
Settings: 10 µM unless noted
The panel holds about 83,000 compounds, 20% with a hit somewhere; the sample as a whole holds those more often. The source made the active and inactive calls. The calls were made as follows: active = growth percent below 10; inactive = the rest.
Return exactly one item of class 1 = active, class 0 = inactive

The examples below pair each entry with its known result.
compound=COC[C@H]1OC(=O)c2coc3c2[C@@]1(C)C1=C(C3=O)[C@@H]2CCC(=O)[C@@]2(C)C[C@H]1OC(C)=O cat="class 0"
compound=CC[C@H](C)[C@H](NC(=O)[C@H]1CCCCN1C)C(=O)N(C)[C@H](C(=O)NC12CC(C(=O)N[C@@H](Cc3ccccc3)C[C@H](C)C(=O)OC)(C1)C2)C(C)C cat="class 0"
compound=CC(C)COC(=O)Cc1ccccc1 cat="class 0"
compound=Cc1ccc(N2CCN(CCC#N)CC2)cc1 cat="class 0"

Just curious, what result did C#COc1cccc(Nc2ncnc3cc(NC(=O)CF)ccc23)c1 get here?
class 0

Just curious, what result did CC[PH+](CC)CC.O=COC1OC([S-])C(OC=O)C(OC=O)C1OC=O.[Au+] (stereo unspecified) get here?
class 1
